testedTarget: human CYP11B2 (Homo sapiens)
Construct: expressed in transfected cells; host or cells: V79 Chinese hamster cells
Sequence (P19099 25-503): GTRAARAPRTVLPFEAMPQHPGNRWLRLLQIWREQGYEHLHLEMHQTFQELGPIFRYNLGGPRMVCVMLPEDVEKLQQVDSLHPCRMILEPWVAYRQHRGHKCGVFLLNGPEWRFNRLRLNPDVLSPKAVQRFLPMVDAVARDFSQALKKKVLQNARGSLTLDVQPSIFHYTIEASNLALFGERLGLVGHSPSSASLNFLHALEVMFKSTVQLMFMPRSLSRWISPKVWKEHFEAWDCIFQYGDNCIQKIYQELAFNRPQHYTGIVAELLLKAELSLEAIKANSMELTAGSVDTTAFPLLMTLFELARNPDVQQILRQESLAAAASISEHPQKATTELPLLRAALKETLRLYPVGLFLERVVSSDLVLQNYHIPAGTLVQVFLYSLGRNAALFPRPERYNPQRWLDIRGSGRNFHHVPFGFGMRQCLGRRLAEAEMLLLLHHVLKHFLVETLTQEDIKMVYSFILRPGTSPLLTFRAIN
experiment: Inhibitor potency for human CYP11B2 in V79 cells expressing the enzyme (HPLC steroid analysis)
Assay type: cell-based
reportedConditions: Ratio = IC50 CYP11B1/ IC50 CYP11B2 (selectivity)
Categorize each record by its Ratio using zone 1 = under 7, zone 2 = from 7 up to 10, zone 3 = 10 and over

Please review the entries below; each comes with its answer.
1) N#Cc1ccc(Cn2cncc2-c2cccc(F)c2)cc1 = zone 1
2) COC(=O)CCc1cncn1Cc1ccc(Br)cc1 = zone 3

Prompt: Hi there! Could you help me figure out the category for N#Cc1ccc(Cn2cncc2-c2ccccc2)cc1 please?
Completion: zone 3

Prompt: The entry to classify is Cc1ccccc1-c1cncn1Cc1ccc(C#N)cc1 ; which class holds it?
Completion: zone 3

Prompt: Exam item: assign Cc1cncn1Cc1ccc(C#N)cc1 to the correct category.
Completion: zone 3

Prompt: Given N#Cc1ccc(Cn2cncc2C=O)cc1 , name the class its Ratio places it in.
Completion: zone 2
